Hey, just so you know, these numbers are from patent US20180162947A1.

# study.system: T1, recombinant human CSF-1R (form not stated) (human, UniProt P07333 20-512, limits assumed)
# T1 construct: for the ELISA no species is stated; also called recombinant CSF-1R; recombinant CSF-1R protein
# T1 sequence (P07333 20-512 limits assumed): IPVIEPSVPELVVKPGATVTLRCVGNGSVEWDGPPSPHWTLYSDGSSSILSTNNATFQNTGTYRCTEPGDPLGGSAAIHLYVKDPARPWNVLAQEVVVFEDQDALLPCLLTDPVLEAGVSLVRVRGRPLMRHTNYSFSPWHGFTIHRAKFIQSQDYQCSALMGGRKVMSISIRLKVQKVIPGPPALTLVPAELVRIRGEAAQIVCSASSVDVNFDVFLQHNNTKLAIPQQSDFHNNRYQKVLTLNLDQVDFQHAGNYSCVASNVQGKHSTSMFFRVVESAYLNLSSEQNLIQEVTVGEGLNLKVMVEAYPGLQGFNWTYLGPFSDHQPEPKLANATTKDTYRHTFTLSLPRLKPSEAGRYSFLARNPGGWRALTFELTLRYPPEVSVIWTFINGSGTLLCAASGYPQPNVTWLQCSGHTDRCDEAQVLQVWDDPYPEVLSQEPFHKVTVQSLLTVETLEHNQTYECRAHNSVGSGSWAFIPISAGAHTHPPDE
# protocol.description: BIAcore, experiment 3 of 3
property: koff (s⁻¹)
Just the number please, in s⁻¹, no unit attached.

Sample answers from the record:
[
  {
    "binder": "969gH2gL4 (antibody, human IgG4 S228P, kappa, name in Kabat numbering, V domains shown, Humanised IgG4 (S241P)/kappa; positions are Kabat; also called Ab969.g7) VH: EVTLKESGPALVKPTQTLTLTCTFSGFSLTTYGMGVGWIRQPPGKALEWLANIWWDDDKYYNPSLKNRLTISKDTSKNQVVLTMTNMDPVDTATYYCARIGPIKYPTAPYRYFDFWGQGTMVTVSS VL: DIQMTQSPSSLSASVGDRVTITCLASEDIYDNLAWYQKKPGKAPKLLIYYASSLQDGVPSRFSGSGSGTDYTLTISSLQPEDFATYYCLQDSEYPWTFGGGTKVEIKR",
    "display.unit": "s⁻¹",
    "koff": "1.15e-05"
  },
  {
    "binder": "969gH2gL8 (antibody, human IgG4 S228P, kappa, name in Kabat numbering, V domains shown, Humanised IgG4 (S241P)/kappa, no donor residues; position is Kabat; also called Ab969.g4) VH: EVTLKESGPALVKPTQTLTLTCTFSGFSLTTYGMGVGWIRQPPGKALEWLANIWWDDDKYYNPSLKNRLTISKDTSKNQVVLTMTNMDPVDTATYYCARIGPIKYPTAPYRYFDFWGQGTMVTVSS VL: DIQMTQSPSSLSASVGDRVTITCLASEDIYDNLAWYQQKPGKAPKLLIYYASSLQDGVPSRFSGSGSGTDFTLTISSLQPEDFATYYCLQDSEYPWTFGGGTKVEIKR",
    "display.unit": "s⁻¹",
    "koff": "5e-06"
  },
  {
    "binder": "969gH1gL1 (antibody, human IgG4 S228P, kappa, name in Kabat numbering, V domains shown, Humanised IgG4 (S241P)/kappa; positions are Kabat; also called Ab969.g1) VH: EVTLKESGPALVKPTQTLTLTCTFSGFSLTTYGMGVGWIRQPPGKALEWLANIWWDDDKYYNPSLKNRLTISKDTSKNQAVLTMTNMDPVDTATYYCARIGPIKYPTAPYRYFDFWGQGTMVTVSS VL: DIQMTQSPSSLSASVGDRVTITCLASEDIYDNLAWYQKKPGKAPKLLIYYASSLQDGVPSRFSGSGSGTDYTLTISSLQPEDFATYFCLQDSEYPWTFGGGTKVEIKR",
    "display.unit": "s⁻¹",
    "koff": "9.88e-06"
  }
]

Lab note: 969gH2gL1 (antibody, human IgG4 S228P, kappa, name in Kabat numbering, V domains shown, Humanised IgG4 (S241P)/kappa; positions are Kabat; also called Ab969.g6) VH: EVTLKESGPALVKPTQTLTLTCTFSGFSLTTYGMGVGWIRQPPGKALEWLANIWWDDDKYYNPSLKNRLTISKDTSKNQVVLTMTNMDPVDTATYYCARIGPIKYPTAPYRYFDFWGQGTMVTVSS VL: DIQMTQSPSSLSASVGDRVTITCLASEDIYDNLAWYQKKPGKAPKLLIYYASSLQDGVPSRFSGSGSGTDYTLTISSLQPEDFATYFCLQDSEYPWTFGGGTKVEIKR gave koff of 6.63e-06
